// values below are reported pEC50
target: "5-HT1 -like" receptor (Canis lupus familiaris, UniProt P79250); construct: dog isolated saphenous vein strip; test: contraction of dog isolated saphenous vein strip (in vitro "5-HT1 -like" receptor agonist activity); details: concentration which causes 50% of the maximum contraction effected by the compound
Sequence (P79250 whole entry): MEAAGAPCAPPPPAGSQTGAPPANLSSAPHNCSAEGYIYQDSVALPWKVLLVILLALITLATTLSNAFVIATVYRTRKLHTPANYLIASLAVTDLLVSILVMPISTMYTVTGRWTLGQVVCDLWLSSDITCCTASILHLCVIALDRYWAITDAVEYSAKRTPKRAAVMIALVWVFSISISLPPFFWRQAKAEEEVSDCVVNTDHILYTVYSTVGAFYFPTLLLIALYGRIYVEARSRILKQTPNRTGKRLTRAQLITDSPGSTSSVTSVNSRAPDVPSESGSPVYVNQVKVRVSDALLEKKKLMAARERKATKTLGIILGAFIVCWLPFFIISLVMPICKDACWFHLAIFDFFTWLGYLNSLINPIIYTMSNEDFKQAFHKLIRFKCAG
Scale: pEC50 equals -log10([C]), with [C] in mol/L.

// solved cases for pEC50 follow
>  <Molecule>
CC(C)(O)CCc1ccc2[nH]cc(C[C@H]3CCCN3)c2c1

>  <Observation Type>
pEC50

>  <Value Reported>
6.17

$$$$
>  <Molecule>
CN(C)C(=O)CCN1CCC[C@@H]1Cc1c[nH]c2ccc(CCC3(O)CCOC3)cc12 (stereo partly drawn)

>  <Observation Type>
pEC50

>  <Value Reported>
6.15

$$$$
>  <Molecule>
CC(C)(O)CCc1ccc2[nH]cc(C[C@H]3CCCN3CCc3ccncc3)c2c1

>  <Observation Type>
pEC50

>  <Value Reported>
6.03

$$$$

Lookup: Identify the reported pEC50 for the following entry. CC(O)CCc1ccc2[nH]cc(C3CCN(C)CC3)c2c1 (stereo not drawn)
Found: 6.25

Lookup: Identify the reported pEC50 for the following entry. OC1(CCc2ccc3[nH]cc(C4CCNC4)c3c2)CCCC1 (stereo not drawn)
Found: 6.12

Lookup: Identify the reported pEC50 for the following entry. CN1CCC[C@@H]1Cc1c[nH]c2ccc(C=CC(C)(C)O)cc12
Found: 6.40
